# System: HCC-2998 colon
# PROTOCOL_NOTES: NCI tumour cell line growth inhibition, 48 h
MEASUREMENT_NAME: TGI

# example entries with known answers
> print(dat)
                                   molecule    result
1  CC1SC(c2c(Cl)cccc2Cl)N(NC(=O)C(O)c2ccccc2)C1=O (centres undefined)  > 100 µM
2  COC(=O)C1N=CSCC1(C)O (centres undefined)  > 100 µM
3  N#CC(C(=N/NC(N)=S)/C(=N/NC(N)=S)C(C#N)c1ccc(Cl)cc1)c1ccc(Cl)cc1 (centres undefined)  > 100 µM

Please report TGI for every entry that follows.
1. Nc1ccc(-c2nc3cc(F)ccc3s2)cc1CO
2. CC(CN1CCN(CC(C)Nc2ccnc3cc(Cl)ccc23)CC1)Nc1ccnc2cc(Cl)ccc12 (centres undefined)
3. COc1cccc(NC(=O)CC(=O)N2N=C(C)C(N=Nc3ccc(S(=O)(=O)CCOS(=O)(=O)O)cc3)C2=O)c1 (centres undefined)
4. Cc1ccc(C2C3=C(N=c4s/c(=C/c5ccc(Br)cc5)c(=O)n42)c2ccc4ccccc4c2OCC3)cc1 (centres undefined)
5. CC(C)(CC#N)c1cc(CC(C)(C)c2cc(CC(C)(C)c3cc(C(C)(C)C4(C)OCCO4)no3)no2)no1
6. CC(=O)[C-](C(C)=O)c1ccccc1.CC(=O)[C-](C(C)=O)c1ccccc1.CC[O-].CC[O-].[Ti+4]

1: 6.17 µM; 2: 50.2 µM; 3: 29.1 µM; 4: > 100 µM; 5: > 100 µM; 6: > 100 µM

====

# Tested on: SW-620 colon
# PROTOCOL_NOTES: NCI tumour cell line growth inhibition, 48 h
Answer each item with its documented GI50.

Some compounds with known GI50 results, for comparison:
> print(dat)
                                   compound  measurement.name   result
1  c1ccc2cc(Cn3c[n+](Cc4ccc5ccccc5c4)c4ccccc43)ccc2c1              GI50  1.27 µM
2  CCCCCCNc1nc(N2CCOCC2)c2[nH]c(NCCCCCC)nc2n1              GI50  1.44 µM
3         C#Cc1cccc(Oc2ccc(NC(=O)CCl)cc2)c1              GI50  24.8 µM
4  O=C(Nc1ccccc1O)c1ccc(CNC(=O)c2sccc2Nc2ccnc(C(F)(F)F)c2)cc1              GI50  5.36 µM
5  O=C(CNc1ncco1)Nc1ccc(S(=O)(=O)c2ccc(NC(=O)CNc3ncco3)cc2)cc1              GI50  1.75 µM

Working through the 5 compounds below one at a time, give GI50 for each.
1. O=C(NNS(=O)(=O)c1ccc(F)cc1)c1cccnc1Nc1ccc(Cl)cc1Cl
2. CCCN1C(=O)CSC1=Nc1ccc2cc3ccc(N=C4SCC(=O)N4CCC)cc3nc2c1
3. COc1cc(-c2cc(/C=C3\C(=O)Nc4ccccc43)[nH]n2)cc(OC)c1OC
4. CS(=O)(=O)CCn1c(=O)c(Oc2ccc(F)cc2F)cc2cnc(NC3CCOCC3)nc21
5. O=C1c2ccn(CCCCN3CCCCC3)c2C(=O)c2c1c(O)c1ccccc1c2O

1. 29.1 µM
2. > 100 µM
3. 3.33 µM
4. > 25 µM
5. 3.18 µM
